meta.source: patent US10501479B2

molecular target: GHSR-1a (HEK293/GHSR1a cell line) (Homo sapiens); construct: expressed in transfected cells; host or cells: HEK293/GHSR1a cell line; experiment: Ghrelin antagonist potency (IC50) with calcium FLIPR assay, ghrelin 10 nM; type: cell-based; conditions: HEK293/GHSR1a, ghrelin 10 nM, read-out: Activity IC50 (ghrelin antagonist potency)
READOUT LABEL: pIC50
Just the number, please; pIC50 means minus log10 of the concentration in mol/L.

Return reported pIC50; argument: COc1ccc([C@@H](C)NC(=O)Nc2ccc(S(=O)(=O)Cc3ccc4c(c3)CCN(C)C4)cc2)c(Cl)c1Cl
7.35

Return reported pIC50; argument: CC(NC(=O)Nc1ccc(S(=O)(=O)Cc2ccc3c(c2)CNC3)cn1)c1ccccc1 (stereo not shown)
6.79

Return reported pIC50; argument: CC(NC(=O)Nc1c(F)cc(S(=O)(=O)Cc2ccc3c(c2)CNC3)cc1F)c1ccccc1.O=C(O)C(F)(F)F (stereo not shown)
5.79

Return reported pIC50; argument: COc1cc(S(=O)(=O)Cc2ccc(CO)cc2)ccc1NC(=O)NC(C)c1c(F)cccc1F (stereo not shown)
5.26

----------
Target: recombinant human ghrelin receptor (HEK293/GRLN) (Homo sapiens, UniProt Q92847)
Construct: expressed in transfected cells
Sequence (Q92847 whole entry): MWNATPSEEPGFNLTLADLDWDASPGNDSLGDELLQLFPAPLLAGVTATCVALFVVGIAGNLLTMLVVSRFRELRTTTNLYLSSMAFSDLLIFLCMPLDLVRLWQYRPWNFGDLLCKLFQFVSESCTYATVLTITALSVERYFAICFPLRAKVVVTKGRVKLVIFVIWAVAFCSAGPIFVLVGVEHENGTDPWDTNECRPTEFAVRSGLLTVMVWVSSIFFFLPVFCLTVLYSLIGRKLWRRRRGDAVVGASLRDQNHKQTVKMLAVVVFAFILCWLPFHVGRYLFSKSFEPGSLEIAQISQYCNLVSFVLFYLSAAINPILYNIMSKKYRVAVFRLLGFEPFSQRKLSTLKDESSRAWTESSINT
Test: Ghrelin inverse agonist potency (EC50) with IP-1 (IP-One HTRF) assay
Format: cell-based
Conditions: inverse agonist potency, IP-1 assay; read-out: EC50 (Activity)
Experimental: Evaluation of Ghrelin Inverse Agonist Potency (EC50) with IP-1 Assay: HEK293 cells stably expressing recombinant human ghrelin receptor (HEK293/GRLN) were used in the IP-One HTRF assay. […] After additional incubation at room temperature for 1 hour, the plates were read on Envision with 620 and 665 (Perkin Elmer).
READOUT LABEL: EC50 (nM)
Enter your answer as a number in nM; do not include the unit.

Return reported EC50; argument: CN(C)C(C)(C)Cc1ccc(NS(=O)(=O)c2ccc(NC(=O)NCc3ccccc3)cc2)cc1
32.8

Return reported EC50; argument: CC(c1ccc2c(c1)CCNC2)S(=O)(=O)c1ccc(NC(=O)N[C@@H](C)c2cccc(Cl)c2Cl)cc1.Cl (some centres unmarked)
11.1

Return reported EC50; argument: O=C(NCc1cccc(Cl)c1)Nc1ccc(S(=O)(=O)Cc2ccc3c(c2)CCNC3)cc1
123

Return reported EC50; argument: C[C@H](NC(=O)Nc1ccc(S(=O)(=O)Nc2ccc(N)nn2)cc1)c1cccc(Cl)c1Cl
2460

Return reported EC50; argument: COc1ccc([C@H](C)NC(=O)Nc2ccc(S(=O)(=O)Nc3ccc4c(c3)CCNC4)cc2)c(Cl)c1Cl.Cl
8.88

Return reported EC50; argument: C[C@H](NC(=O)Nc1ccc(S(=O)(=O)Cc2ccc3c(c2)CCN(Cc2ccccc2)C3)cc1)c1cccc(Cl)c1Cl
21.9

Return reported EC50; argument: CC(NC(=O)Nc1ccc(S(=O)(=O)Nc2ccc3c(c2)CNC3)cc1)c1ccccc1.Cl (centres unmarked)
4.26

Return reported EC50; argument: C[C@H](NC(=O)Nc1ccc(S(=O)(=O)Nc2ccc3[nH]ncc3c2)cc1)c1cccc(Cl)c1Cl
862

----------
experiment: Animal PK study in mouse via i.v., p.o. and s.c. administration; assay type: in vivo; conditions: i.v.
Label MET when PK t1/2iv is at or above 2 h; anything below gets NOT MET.

Is PK t1/2iv at least 2 h? Consider CC(C)(N)Cc1ccc(NS(=O)(=O)c2ccc(NC(=O)NCc3ccccc3)cc2)cc1.Cl
NOT MET

Is PK t1/2iv at least 2 h? Consider C[C@H](NC(=O)Nc1ccc(S(=O)(=O)Nc2ccc(CC(C)(C)N)cc2)cc1)c1ccc(-c2cnccn2)c(Cl)c1Cl
NOT MET

Is PK t1/2iv at least 2 h? Consider C[C@H](NC(=O)Nc1ccc(S(=O)(=O)Cc2ccc(CC(C)(C)N(C)C)cc2)cc1)c1cccc(Cl)c1Cl
NOT MET

Is PK t1/2iv at least 2 h? Consider COc1ccc([C@H](C)NC(=O)Nc2ccc(S(=O)(=O)Nc3ccc4c(c3)CCNC4)cc2)c(Cl)c1Cl.Cl
MET

Is PK t1/2iv at least 2 h? Consider Cl.O=C(NCc1cccc(Cl)c1Cl)Nc1ccc(S(=O)(=O)Cc2ccc3c(c2)CNC3)cc1
NOT MET

Is PK t1/2iv at least 2 h? Consider CC(NC(=O)Nc1ccc(S(=O)(=O)Cc2ccc3c(c2)CNC3)cc1)c1cccc2ccccc12.Cl (centres unmarked)
NOT MET

Is PK t1/2iv at least 2 h? Consider CC(NC(=O)Nc1ccc(S(=O)(=O)Cc2ccc3c(c2)CN(CC2CC2)C3)cc1)c1ccccc1 (centres unmarked)
NOT MET

Is PK t1/2iv at least 2 h? Consider C[C@H](NC(=O)Nc1ccc(S(=O)(=O)Nc2ccc3c(c2)CCNC3)cc1)c1cccc(Cl)c1Cl.Cl
NOT MET

Is PK t1/2iv at least 2 h? Consider C[C@H](NC(=O)Nc1ccc(S(=O)(=O)Nc2ccc(CC(C)(C)N(C)C)cc2)cc1)c1cccc(Cl)c1Cl
MET

Is PK t1/2iv at least 2 h? Consider CCOC(=O)N1CCc2cc(NS(=O)(=O)c3ccc(NC(=O)N[C@@H](C)c4cccc(Cl)c4Cl)cc3)ccc2C1
NOT MET

Is PK t1/2iv at least 2 h? Consider C[C@H](NC(=O)Nc1ccc(S(=O)(=O)Cc2ccc3c(c2)CCN(C)C3)cc1)c1cccc(Cl)c1Cl
NOT MET

Is PK t1/2iv at least 2 h? Consider C[C@H](NC(=O)Nc1ccc(S(=O)(=O)Cc2ccc(CO)cc2)cc1)c1cccc(Cl)c1Cl
NOT MET

Is PK t1/2iv at least 2 h? Consider C[C@H](NC(=O)Nc1ccc(S(=O)(=O)Cc2ccc(CC(C)(C)N)cc2)cc1)c1cccc(Cl)c1Cl
MET

Is PK t1/2iv at least 2 h? Consider O=C(NCc1ccccc1Cl)Nc1ccc(S(=O)(=O)Cc2ccc3c(c2)CCNC3)cc1
MET

Is PK t1/2iv at least 2 h? Consider COc1ccc([C@H](C)NC(=O)Nc2ccc(S(=O)(=O)Cc3ccc4c(c3)CCN(C(C)=O)C4)cc2)c(Cl)c1Cl
NOT MET

----------
target: recombinant human ghrelin receptor (HEK293/GRLN) (Homo sapiens); construct: expressed in transfected cells; experiment: Ghrelin inverse agonist potency (EC50) with IP-1 (IP-One HTRF) assay; format: cell-based; settings: IP-1 assay, HEK293/GRLN; read-out: Activity EC50 (ghrelin inverse agonist potency)
pEC50: −log10 of the molar value.
Label satisfied when pEC50 is at or above 8; anything below gets not satisfied.

Is pEC50 at least 8? Consider CC(NC(=O)Nc1ccc(S(=O)(=O)Cc2ccc3c(c2)CN(C)C3)cc1)c1cc(N2CCOCC2)ccc1Cl (centres unmarked) [H1284]
not satisfied

Is pEC50 at least 8? Consider COc1cccc(F)c1C(C)NC(=O)Nc1ccc(S(=O)(=O)Cc2ccc3c(c2)CNC3)cc1 (centres unmarked) [H1455]
satisfied

Is pEC50 at least 8? Consider CC(NC(=O)Nc1ccc(S(=O)(=O)Cc2cccc(CN)c2)cc1)c1ccccc1 (centres unmarked) [H1290]
not satisfied

Is pEC50 at least 8? Consider CC(NC(=O)Nc1ccc(S(=O)(=O)Cc2cc(Cl)c3c(c2)CNC3)cc1)c1ccccc1 (centres unmarked) [H1405]
not satisfied

Is pEC50 at least 8? Consider COc1cc(S(=O)(=O)Cc2ccc3c(c2)CCN(C)C3)ccc1NC(=O)N[C@H](C)c1ccc(OC)c(Cl)c1Cl [H1422]
satisfied

Is pEC50 at least 8? Consider CC(NC(=O)Nc1ccc(S(=O)(=O)Cc2cnc3c(c2)CN(C)C3)cc1)c1ccccc1 (centres unmarked) [H1323]
not satisfied

Is pEC50 at least 8? Consider COc1cc(S(=O)(=O)Cc2ccc3c(c2)CNC3)ccc1NC(=O)NC(C)c1cccc(Cl)c1Cl.Cl (centres unmarked) [H1421]
satisfied

Is pEC50 at least 8? Consider CC(NC(=O)Nc1ccc(S(=O)(=O)Cc2ccc3c(c2)C(O)CC3)cc1)c1ccccc1 (centres unmarked) [H1293]
not satisfied

----------
Molecular target: GHSR-1a (HEK293/GHSR1a cell line) (Homo sapiens, UniProt Q92847)
Construct: expressed in transfected cells; host or cells: HEK293/GHSR1a cell line
Sequence (Q92847 whole entry): as above
Experiment: Ghrelin antagonist potency (IC50) with calcium FLIPR assay, ghrelin 10 nM
Assay type: cell-based
Details: ghrelin antagonist potency, read-out: Activity IC50
Procedure: Evaluation of Ghrelin Agonist (EC50) and Antagonist Potency (IC50) with Calcium FLIPR Assay: The intracellular calcium assay was carried out in a 384-well format FLIPR™ (Molecular Device) HEK293/GHSR1a cell line. […] Relative fluorescence was monitored by the FLIPR™ Molecular Device. […] To check for GHSR-1a antagonism, the compound and Ghrelin (10 nM) were added to the cells at t=20 sec. and the calcium response was measured for 2 minutes. […]
Give pIC50 for every item shown.
Just the number, please; pIC50 means minus log10 of the concentration in mol/L.

Return reported pIC50; argument: CC(NC(=O)Nc1ccc(S(=O)(=O)Cc2ccc3c(c2)CNC3)cc1-c1cn[nH]c1)c1ccccc1 (stereo not shown)
5.78

Return reported pIC50; argument: CC(NC(=O)Nc1ccc(S(=O)(=O)Cc2ccc3c(c2)CN(C)C3)cc1Cl)c1ccccc1 (stereo not shown)
6.96

Return reported pIC50; argument: COc1ccc(C(C)NC(=O)Nc2ccc(S(=O)(=O)Cc3ccc4c(c3)CN(C)C4)cc2)cc1Cl (stereo not shown)
7.37

Return reported pIC50; argument: COc1cc(NC(=O)NC(C)c2ccccc2)ccc1S(=O)(=O)Cc1ccc2c(c1)CN(C)C2 (stereo not shown)
7.86

Return reported pIC50; argument: COc1cc(S(=O)(=O)Cc2ccc3c(c2)CCNC3)ccc1NC(=O)N(O)C(C)c1cccc(Cl)c1Cl (stereo not shown)
8.55

Return reported pIC50; argument: CC(NC(=O)Nc1ccc(S(=O)(=O)Cc2ccc3c(c2)CNC3)c(C(=O)O)c1)c1ccccc1 (stereo not shown)
6.21

Return reported pIC50; argument: CC(NC(=O)Nc1ccc(S(=O)(=O)Cc2ccc3c(c2)CNC3)cc1-c1ccnn1C)c1ccccc1 (stereo not shown)
6.24

Return reported pIC50; argument: COc1cc(S(=O)(=O)Cc2ccc3c(c2)CN(C)C3)ccc1NC(=O)N(O)C(C)c1ccccc1 (stereo not shown)
7.56

Return reported pIC50; argument: CC(NC(=O)Nc1ccc2c(c1)S(=O)(=O)C(c1ccc3c(c1)CNC3)C2=O)c1ccccc1 (stereo not shown)
5.41

Return reported pIC50; argument: CC(NC(=O)Nc1ccc(C(=O)Nc2ccc3c(c2)CN(C)C3)cc1)c1ccccc1 (stereo not shown)
4.62

Return reported pIC50; argument: COc1ccc(C(C)NC(=O)Nc2ccc(S(=O)(=O)Cc3ccc4c(c3)CNC4)cc2)cc1Cl (stereo not shown) [H1475]
7.49

Return reported pIC50; argument: COc1cc(S(=O)(=O)Cc2ccc3c(c2)C(F)CN(C)C3)ccc1NC(=O)N[C@H](C)c1cccc(Cl)c1Cl (stereo partly shown)
7.39

Return reported pIC50; argument: COc1cc(S(=O)(=O)Cc2ccc3c(c2)C(F)CNC3)ccc1NC(=O)N[C@H](C)c1cccc(Cl)c1Cl (stereo partly shown)
7.80

Return reported pIC50; argument: COc1cc(S(=O)(=O)Cc2ccc3c(c2)CNC3)ccc1NC(=O)N(O)C(C)c1cccc(Cl)c1Cl (stereo not shown)
8.67

Return reported pIC50; argument: COc1cc(S(=O)(=O)Cc2ccc3c(c2)CCNC3)ccc1NC(=O)N[C@@H](C)c1cccc(Cl)c1Cl
9.55

Return reported pIC50; argument: CC(c1ccccc1)N(O)C(=O)Nc1ccc(S(=O)(=O)Cc2ccc3c(c2)CN(C)C3)cc1 (stereo not shown) [H1471]
7.93
